Answer each item with its documented concentration at 4 h.
test: Drug level in Sprague-Dawley rat blood at 3 mg/kg, po after 4 hrs by HPLC analysis; type: ADME, organism-based; design: dose 3 mg/kg, route oral; conditions: whole blood, read-out: Drug uptake
Field format: number, assumed nM, no unit text.

Note to self: concentration at 4 h recorded for CC(=O)N1CCc2c(sc3nc(CCCCN4CCN(c5ccc6ccccc6n5)CC4)n(N)c(=O)c23)C1 was 55.8

Sure, the documented concentration at 4 h for Nn1c(SCCCN2CCN(c3ccc4ccccc4n3)CC2)nc2c(c1=O)CCCC2 is 10.6

For this compound ( Nn1c(CCCCN2CCN(c3ccc4ccccc4n3)CC2)nc2ccccc2c1=O ), measured concentration at 4 h is 55.5

Summary for this compound, Nn1c(CCCCN2CCN(c3ccc4ccccc4n3)CC2)nc2c(c1=O)CCCC2 : concentration at 4 h is 16.8

concentration at 4 h reading for CC(=O)N1CCc2c(sc3nc(SCCCN4CCN(c5ccc6ccccc6n5)CC4)n(N)c(=O)c23)C1 : 36.1

###

I'd appreciate it if you could supply IC50 values for the items below.
Target: UniProtKB P46098
Sequence (P46098 whole entry): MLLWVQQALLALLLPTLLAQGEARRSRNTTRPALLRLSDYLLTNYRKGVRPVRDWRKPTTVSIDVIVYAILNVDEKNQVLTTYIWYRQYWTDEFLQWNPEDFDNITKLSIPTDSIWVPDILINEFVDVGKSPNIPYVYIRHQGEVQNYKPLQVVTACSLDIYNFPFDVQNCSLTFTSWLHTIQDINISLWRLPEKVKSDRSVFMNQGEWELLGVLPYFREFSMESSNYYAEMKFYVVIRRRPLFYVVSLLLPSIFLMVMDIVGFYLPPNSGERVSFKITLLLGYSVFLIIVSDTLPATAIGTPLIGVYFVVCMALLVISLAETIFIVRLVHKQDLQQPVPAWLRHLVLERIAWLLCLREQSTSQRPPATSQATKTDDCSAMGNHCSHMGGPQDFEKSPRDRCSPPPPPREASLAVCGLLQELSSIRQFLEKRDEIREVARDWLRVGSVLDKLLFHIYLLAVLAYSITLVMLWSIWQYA
Test: Displacement of [3H]BRL-43694 from human 5HT3 receptor expressed in HEK293 cells by liquid scintillation counting
Type: cell-based
Could you give me the number in nM? Just the number is fine.

Given the compound Nn1c(CCCCN2CCN(c3ccc4ccccc4n3)CC2)nc2cccc(F)c2c1=O and test system UniProtKB P46098, the measured IC50 is 50.6

Field IC50 (UniProtKB P46098), entry Nn1c(CCCCN2CCN(c3ccc4ccccc4n3)CC2)nc2c(Cl)cccc2c1=O : 83.1

###

I'd be grateful if you could share measured pIC50 for these entries.
molecular target: 5-hydroxytryptamine receptor 1A (Homo sapiens); test: Displacement of [3H]8-OH-DPAT from human 5HT1A receptor expressed in CHO cells by liquid scintillation counting; type: cell-based
Notebook: values listed as pIC50 are -log10 of the concentration (mol/L).

# value of pIC50, 5-hydroxytryptamine receptor 1A (Homo sapiens), item Cc1cc2ccccc2nc1N1CCN(CCCCc2nc3c(c(=O)n2N)CCCC3)CC1 = 7.02

Item: CC(=O)N1CCc2c(sc3nc(SCCCN4CCN(c5ccc6ccccc6n5)CC4)n(N)c(=O)c23)C1 | System: 5-hydroxytryptamine receptor 1A (Homo sapiens) | pIC50: 8.60

// assay 5-hydroxytryptamine receptor 1A (Homo sapiens), entry Cc1sc2nc(SCCCN3CCN(c4ccc5c(n4)CCCC5)CC3)n(N)c(=O)c2c1C , pIC50 value = 8.21

###

I'd appreciate it if you could supply concentration at 4 h values for the items below.
experiment: Drug level in Sprague-Dawley rat brain at 3 mg/kg, po after 4 hrs by HPLC analysis; type: ADME, organism-based; design: dose 3 mg/kg, route oral; conditions: read-out: Drug uptake

// recorded concentration at 4 h for Nn1c(CCCCN2CCN(c3ccc4ccccc4n3)CC2)nc2ccccc2c1=O : 367 nM

Sure, the documented concentration at 4 h for Nn1c(CCCCN2CCN(c3ccc4ccccc4n3)CC2)nc2c(c1=O)CCCC2 is 70.2 nM

Form: compound = CC(=O)N1CCc2c(sc3nc(SCCCN4CCN(c5ccc6ccccc6n5)CC4)n(N)c(=O)c23)C1 ; concentration at 4 h = 12.9 nM

Input CC(=O)N1CCc2c(sc3nc(CCCCN4CCN(c5ccc6ccccc6n5)CC4)n(N)c(=O)c23)C1 . Output concentration at 4 h: 19.5 nM

concentration at 4 h reported for this compound Nn1c(SCCCN2CCN(c3ccc4ccccc4n3)CC2)nc2c(c1=O)CCCC2 : 32.2 nM

###

molecular target: 5-hydroxytryptamine receptor 1A (Homo sapiens) (UniProt P08908); assay: Agonist activity at human cloned 5HT1A receptor expressed in CHO cells assessed as stimulation of [35S]GTPgammaS binding at 900 uL after 30 mins by liquid scintillation counting; format: functional, cell-based
Emax under 90% gets Y, anything at or over 90% gets N.

Prompt: Hello, is Emax of the following compound strictly smaller than 90%? Nn1c(CCCCN2CCN(c3ccc4ccccc4n3)CC2)nc2ccccc2c1=O
Response: N

Prompt: In the record for Cc1cc(N2CCN(CCCCc3nc4c(c(=O)n3N)CCCC4)CC2)nc2ccccc12 , is Emax less than 90%?
Response: N

Prompt: Emax strictly < 90% for this compound? Nn1c(CCCCN2CCN(c3ccc4ccccc4n3)CC2)nc2c(c1=O)CCCC2
Response: N

Prompt: Hello, is Emax of the following compound strictly smaller than 90%? CC(=O)N1CCc2c(sc3nc(SCCCN4CCN(c5ccc6ccccc6n5)CC4)n(N)c(=O)c23)C1
Response: Y

###

target: 5-hydroxytryptamine receptor 1A (Homo sapiens); experiment: Displacement of [3H]8-OH-DPAT from human 5HT1A receptor expressed in CHO cells by liquid scintillation counting; type: cell-based
pIC50: −log10 of the molar value.
Readout Type: pIC50

So for Nn1c(CCCCN2CCN(c3ccc4ccccc4n3)CC2)nc2cc(F)ccc2c1=O , the logged pIC50 turned out to be > 8.00

Quick note, pIC50 for Nn1c(CCCCN2CCN(c3ccc4ccccc4n3)CC2)nc2cccc(F)c2c1=O landed at > 8.00

Record Cc1sc2nc(SCCCN3CCN(c4ccc5ccccc5n4)CC3)[nH]c(=O)c2c1C , field pIC50: < 7.00

GET /value?item= Nn1c(CCCCN2CCN(c3ccc4ccccc4n3)CC2)nc2c(c1=O)CC(O)CC2 (stereo not given) &field=pIC50 returns > 8.00

Recorded result, Cc1sc2nc(SCCCN3CCN(c4nc5ccccc5nc4-c4ccccc4)CC3)n(N)c(=O)c2c1C , pIC50: < 7.00

###

Biological target: 5-hydroxytryptamine receptor 1A (Homo sapiens, UniProt P08908)
Sequence (P08908 whole entry): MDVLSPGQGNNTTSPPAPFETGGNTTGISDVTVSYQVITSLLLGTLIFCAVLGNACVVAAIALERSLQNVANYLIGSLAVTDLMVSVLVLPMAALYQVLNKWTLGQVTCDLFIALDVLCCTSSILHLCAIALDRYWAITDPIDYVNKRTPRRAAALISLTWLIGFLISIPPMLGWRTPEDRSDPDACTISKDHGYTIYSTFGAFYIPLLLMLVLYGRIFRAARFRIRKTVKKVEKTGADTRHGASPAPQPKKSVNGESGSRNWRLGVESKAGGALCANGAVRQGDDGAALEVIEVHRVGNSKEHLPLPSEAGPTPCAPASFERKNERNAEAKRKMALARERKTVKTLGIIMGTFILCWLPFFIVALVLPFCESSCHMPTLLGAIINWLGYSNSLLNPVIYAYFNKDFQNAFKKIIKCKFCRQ
Assay: Displacement of [3H]8-OH-DPAT from human 5HT1A receptor expressed in CHO cells by liquid scintillation counting
Format: cell-based
Readout Type: IC50

# IC50 (molecule: O=c1[nH]c(SCCCN2CCN(c3ccc4ccccc4n3)CC2)nc2sc3c(c12)CCCC3 ) is > 100 nM

IC50 in this record for CC(=O)N1CCc2c(sc3nc(CCCCN4CCN(c5ccc6ccccc6n5)CC4)n(N)c(=O)c23)C1 : < 10 nM

Record Nn1c(CCCCN2CCN(c3ccc4ccccc4n3)CC2)nc2c(c1=O)CCC2 . Reported IC50: < 1 nM

Entry Nn1c(CCCCN2CCN(c3ccc4ccccc4n3)CC2)nc2c(Cl)cccc2c1=O , IC50 reported as < 10 nM

Quick note, IC50 for Cc1cc(N2CCN(CCCCc3nc4c(c(=O)n3N)CCCC4)CC2)nc2ccccc12 landed at < 10 nM

###

Biological target: 5-hydroxytryptamine receptor 1A (Homo sapiens, UniProt P08908)
Sequence (P08908 whole entry): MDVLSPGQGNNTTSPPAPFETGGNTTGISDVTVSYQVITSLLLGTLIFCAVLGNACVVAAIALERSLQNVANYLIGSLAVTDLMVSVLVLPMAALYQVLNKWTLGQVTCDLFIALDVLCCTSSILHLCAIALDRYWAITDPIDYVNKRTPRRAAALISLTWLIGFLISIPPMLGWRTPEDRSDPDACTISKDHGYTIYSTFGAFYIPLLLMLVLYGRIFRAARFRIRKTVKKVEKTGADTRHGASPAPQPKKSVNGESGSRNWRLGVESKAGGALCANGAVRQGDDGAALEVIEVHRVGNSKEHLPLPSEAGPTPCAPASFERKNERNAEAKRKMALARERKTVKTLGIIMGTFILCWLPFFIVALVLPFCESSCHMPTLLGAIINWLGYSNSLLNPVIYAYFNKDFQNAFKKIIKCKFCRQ
Experiment: Displacement of [3H]8-OH-DPAT from human 5HT1A receptor expressed in CHO cells by liquid scintillation counting
Type: cell-based
Readout Type: IC50

Quick note, IC50 for Nn1c(CCCCN2CCN(c3ccc4ccccc4n3)CC2)nc2ccccc2c1=O landed at < 10 nM

Kindly note the recorded IC50 for Cc1cccc2c(=O)n(N)c(CCCCN3CCN(c4ccc5ccccc5n4)CC3)nc12 , which is < 10 nM

Noted for Nn1c(SCCCN2CCN(c3ccc4ccccc4n3)CC2)nc2sc3c(c2c1=O)CCCC3 : its IC50 reads < 10 nM
